Please provide measured EC50 for the entries that follow.
target: cynomolgus CD3 (cynomolgus monkey) (UniProt Q95LI5); assay: FACS titration on purified cynomolgus T cells
Please reply with the bare figure in nM and do not write the unit itself.

EC50 for BSSTEAP2/CD3-004 (bispecific antibody, IgG4, V domains shown) VH 1: QVQLVESGGGVVQPGRSLRLSCVASGFTISSYGMNWVRQAPGKGLEWVAVISYDGGNKYSVDSVKGRFTISRDNSKNTLYLQMNSLRAEDSAVYYCARGRYFDLWGRGTLVTVSS VH 2: EVQLVESGGGLVQPGRSLRLSCAASGFTFADYTMHWVRQGPGTGLEWVSDIGWSGGSLGYADSVKGRFTISRDNAKNSLYLEMNNLRPEDTALYYCVKDKSGYGKFQYGLDVWGQGTTVTVSS VL: DIQMTQSPSTLSASVGDRVTITCRASQSISSWLAWYQQKPGRAPNLLISKASSLKSGVPSRFSGSGSGTEFTLTVSSLQPDDFATYYCQQYYSYSYTFGQGTKLEIK ? 1.99

EC50 for BSSTEAP2/CD3-001 (bispecific antibody, IgG4, V domains shown) VH 1: QVQLQQSGPGLVKPSQTLSLTCAISGDSVSSNRAAWNWIRQSPSRGLQWLGRTYYRSKWYNDYAVSLRSRITINPVTSKNQVALHMNSVTPEDTAVYYCARAGIVVVPGPETFYYYDHGLDVWGQGTTVTVSS VH 2: EVQLVESGGGLVQPGRSLRLSCAASGFTFDDYSMHWVRQAPGKGLEWVSGISWNSGSKGYADSVKGRFTISRDNAKNSLYLQMNSLRAEDTALYYCAKYGSGYGKFYHYGLDVWGQGTTVTVSS VL: DIQMTQSPSSLSASVGDRVTITCRASQSIRSYLNWYQQKPGKAPELLIHAASSLQSGVPSRFSGSGSGTDFTLTISSLQPEDFASYYCQQSYSAPPITFGQGTRLEIK ? 7.27

EC50 for BSSTEAP2/CD3-006 (bispecific antibody, V domains shown) VH 1: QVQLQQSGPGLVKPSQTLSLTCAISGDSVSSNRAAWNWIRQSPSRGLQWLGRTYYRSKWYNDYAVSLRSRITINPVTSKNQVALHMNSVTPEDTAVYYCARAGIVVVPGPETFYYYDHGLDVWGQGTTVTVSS VH 2: EVQLVESGGGLVQPGRSLRLSCVASGFTFDDYSMHWVRQAPGKGLEWVSGISWNSGSKDYADSVKGRFTISRDNAKNSLYLQMNSLRAEDTALYYCAKYGSGYGKFYHYGLDVWGQGTTVTVSS VL: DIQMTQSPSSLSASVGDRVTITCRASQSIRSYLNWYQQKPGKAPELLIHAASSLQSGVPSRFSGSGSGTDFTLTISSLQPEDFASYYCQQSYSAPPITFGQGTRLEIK ? 7.99
